Target: T1, hCTLA4-His-BAP (human)
T1 sequence (chain, biotin on the BAP-tag): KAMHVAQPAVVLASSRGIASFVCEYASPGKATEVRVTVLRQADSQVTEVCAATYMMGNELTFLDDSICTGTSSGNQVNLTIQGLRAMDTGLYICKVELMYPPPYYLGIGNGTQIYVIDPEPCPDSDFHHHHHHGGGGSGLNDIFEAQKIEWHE
Experiment: IgG ELISA, absorbance with / without AMP
PROPERTY_MEASURED: S/N
Lab note: record just the number, no unit beside it.

Name the reported S/N value associated with the binder ABAM006 (antibody, human IgG1, V domains shown) VH: EVQLVESGGDLVKPGGGLRLSCAASGFTFSTYTMHWVRQAPGKGLEWVSSISSRSGHAHYADSVKGRFTISRDNAKNSLYLQMNSLRAEDTAVYYCARFGRKKKRLWVFDYWGQGTLVTVSS VL: QSALTQPPSASGSPGQTVTISCTGTSTDVGFYNYVSWYQQHPGKAPKLMIYQNSKRPSGVPDRFSGSKSGNTASLTVSGLQAEDEADYFCSTNRAARSVAFGGGTKLTVL
3.86
